For each record, write down the corresponding IC50.
Study target: A31 (A*3101) (Homo sapiens, UniProt P04439, A270S/D185E/E176V/E277Q/F33T/G231S/G80R/H175R/I121M/I218V/I322F/K168Q/L300P/L318F/M331R/P217A/Q94H/R138Q/T323A/T345S/T97I/V358M)
Assay info: biochemical
Type: binding
No end group written: not given here.
Number in µM, nothing else.

// VTVYYGVPIWK [Peptide 1525.02] : IC50 value = 0.15

// LTALIKPKKR [Peptide 9017.0231] : IC50 value = 1.3

// STCMGGMNR [Peptide 1556.61] : IC50 value = 0.157
